System: COLO 205
Assay: 24 hour inhibition assay ([^3 H]-thymidine incorporation), COLO 205
Assay type: cell-based
Conditions: Homo sapiens; Table 3; Colo 205, 24 hr; read-out: Mean I.D.50 values (Ida (M))
VALUE_TYPE: IC50 (M)
Record the value in M, omitting the unit from your answer.

Inquiry: Look at this compound and give its reported IC50. CC(=O)[C@]1(O)Cc2c(O)c3c(c(O)c2[C@@H](O[C@H]2C[C@H](N)[C@H](O)[C@H](C)O2)C1)C(=O)c1ccccc1C3=O
Reply text: 8e-08

###

Test: Acute toxicity, single i.v. injection in CBA mice
Assay type: in vivo
Conditions: mouse, in vivo, iv; Table 2; Ida (mg/kg)
Procedure: Groups of 10-20 CBA mice were given a single i.v. injection of various doses of Ida or Ida-anti-Ly-2.1 and the survival of mice was recorded against the dose of drug delivered in mg/kg. The organs of these mice were removed and weighed prior to formalin fixation and staining by haematoxylin and eosin. For acute toxicity experiments groups of 10 CBA (Ly2.1^+) mice were given a single injection of various doses of either Ida, Ida-anti-Ly-2.1 or Ida-anti-TFR. […]
VALUE_TYPE: LD50 (mg/kg)
Record the value in mg/kg, omitting the unit from your answer.

Inquiry: Look at this compound and give its reported LD50. CC(=O)[C@]1(O)Cc2c(O)c3c(c(O)c2[C@@H](O[C@H]2C[C@H](N)[C@H](O)[C@H](C)O2)C1)C(=O)c1ccccc1C3=O
Reply text: 3

###

System: murine thymoma ITT(1) 75NS E3 (Ly-2^+)
Test: 30 minute inhibition assay ([^3 H]-thymidine incorporation), E3
Format: cell-based
Conditions: Mus musculus, 0.5 h; Table 3; E3, 30 min; read-out: Mean I.D.50 values (Ida (M))
VALUE_TYPE: IC50 (M)
Record the value in M, omitting the unit from your answer.

Inquiry: Look at this molecule and give its reported IC50. CC(=O)[C@]1(O)Cc2c(O)c3c(c(O)c2[C@@H](O[C@H]2C[C@H](N)[C@H](O)[C@H](C)O2)C1)C(=O)c1ccccc1C3=O
Reply text: 1.8e-07
